Test system: Caspase 3
testDescription: Caspase 3 detection assay in SJSA1 cells
Format: cell-based
statedConditions: 0.3 μM, SJSA1, 48 h, Caspase 3 activation over DMSO-treated cells
Bridge positions count the residues as written; N and C are the ends. Square brackets hold non-standard residues; d marks the D form. Peptide text beside a SMILES is read from it. R8 = C=CCCCCCC[C@@](C)(N)C(=O)O; S5 = C=CCCC[C@](C)(N)C(=O)O
measuredQuantity: caspase 0.3 μM
Lab note: jot the number down without any unit.

**Query** Record request: caspase 0.3 μM value, item CC(=O)N[C@@H](CC(C)C)C(=O)N[C@H](C(=O)N[C@@H](Cc1ccccc1)C(=O)N[C@]1(C)CCCCCCC=CCCC[C@@](C)(C(=O)N[C@@H](C)C(=O)N[C@@H](C)C(=O)N[C@@H](C)C(=O)N[C@@H](C)C(=O)N[C@H](C)C(N)=O)NC(=O)[C@H](CC(C)C)NC(=O)[C@H](CCC(N)=O)NC(=O)[C@H](C)NC(=O)[C@H](Cc2c[nH]c3ccccc23)NC(=O)[C@H](Cc2ccc(O)cc2)NC(=O)[C@H](C)NC1=O)[C@@H](C)O
**Result** 6

**Query** Another compound: CC(=O)N[C@@H](CC(C)C)C(=O)N[C@H](C(=O)N[C@@H](Cc1ccccc1)C(=O)N[C@]1(C)CCCCCCC=CCCC[C@@](C)(C(=O)N[C@@H](C)C(=O)N[C@@H](Cc2c[nH]cn2)C(=O)N[C@@H](Cc2ccccc2)C(=O)N[C@@H](C)C(N)=O)NC(=O)[C@H](CC(C)C)NC(=O)[C@H](C)NC(=O)[C@H](C)NC(=O)[C@H](Cc2c[nH]c3ccccc23)NC(=O)[C@H](Cc2ccc(O)cc2)NC(=O)[C@H](C)NC1=O)[C@@H](C)O [compound 204] (Ac-LTF[R8]AYWAAL[S5]AHFA-NH2; staple 4-11)
**Result** 1

**Query** Do the same for CC[C@H](C)[C@H](NC(=O)[C@H](C)NC(=O)[C@H](C)NC(=O)[C@]1(C)CCCC=CCCCCCC[C@@](C)(NC(=O)[C@H](Cc2ccccc2)NC(=O)[C@@H](NC(=O)[C@H](CC(C)C)NC(C)=O)[C@@H](C)O)C(=O)N[C@@H](C)C(=O)N[C@@H](Cc2c[nH]cn2)C(=O)N[C@@H](Cc2c[nH]c3ccccc23)C(=O)N[C@@H](C)C(=O)N[C@@H](CCC(N)=O)C(=O)N[C@@H](CC(C)C)C(=O)N1)C(=O)N[C@H](C)C(N)=O [compound 170] (Ac-LTF[R8]AHWAQL[S5]AAI[dA]-NH2; staple 4-11) please
**Result** 1

**Query** Query CC(=O)N[C@@H](CC(C)C)C(=O)N[C@H](C(=O)N[C@@H](Cc1ccccc1)C(=O)N[C@]1(C)CCCCCCC=CCCC[C@@](C)(C(=O)N[C@@H](C)C(=O)N[C@@H](C)C(=O)N[C@@H](C)C(=O)N[C@H](C)C(N)=O)NC(=O)[C@H](CC(C)C)NC(=O)[C@H](CCC(N)=O)NC(=O)[C@H](C)NC(=O)[C@H](Cc2c[nH]c3ccccc23)NC(=O)[C@H](Cc2ccc(O)cc2)NC(=O)[C@H](C)NC1=O)[C@@H](C)O (single isomer, unassigned) next
**Result** 1

----------
System: Caspase 3
testDescription: Caspase 3 detection assay in SJSA1 cells
Assay type: cell-based
statedConditions: 30 μM, SJSA1, 48 h, Caspase 3 activation over DMSO-treated cells
Bridge positions count the residues as written; N and C are the ends. Square brackets hold non-standard residues; d marks the D form. Peptide text beside a SMILES is read from it. R8 = C=CCCCCCC[C@@](C)(N)C(=O)O; S5 = C=CCCC[C@](C)(N)C(=O)O
measuredQuantity: caspase 30 μM
Answer with a bare number; do not write a unit.

**Query** # query: caspase 30 μM | item CC(=O)N[C@@H](CC(C)C)C(=O)N[C@H](C(=O)N[C@@H](Cc1ccccc1)C(=O)N[C@]1(C)CCCCCCC=CCCC[C@@](C)(C(=O)N[C@@H](CO)C(=O)N[C@@H](C)C(=O)N[C@@H](C)C(N)=O)NC(=O)[C@H](CC(C)C)NC(=O)[C@H](C)NC(=O)[C@H](C)NC(=O)[C@H](Cc2c[nH]c3ccccc23)NC(=O)[C@H](Cc2c[nH]cn2)NC(=O)[C@H](C)NC1=O)[C@@H](C)O [compound 197] (Ac-LTF[R8]AHWAAL[S5]SAA-NH2; staple 4-11) | system: Caspase 3
**Result** 20

----------
Test system: Caspase 3
testDescription: Caspase 3 detection assay in SJSA1 cells
Type: cell-based
statedConditions: 3 μM, SJSA1, 48 h, Caspase 3 activation over DMSO-treated cells
Bridge positions count the residues as written; N and C are the ends. Square brackets hold non-standard residues; d marks the D form. Peptide text beside a SMILES is read from it. R8 = C=CCCCCCC[C@@](C)(N)C(=O)O; Cba = N[C@@H](CC1CCC1)C(=O)O; S5 = C=CCCC[C@](C)(N)C(=O)O; Aib = CC(C)(N)C(=O)O
measuredQuantity: caspase 3 μM
I'd appreciate a reply containing only the number, no unit.

**Query** Give its caspase 3 μM value. Item: CC(=O)N[C@@H](CC(C)C)C(=O)N[C@H](C(=O)N[C@@H](Cc1ccccc1)C(=O)N[C@]1(C)CCCCCCC=CCCC[C@@](C)(C(=O)N[C@@H](CO)C(=O)N[C@@H](C)C(=O)N[C@@H](C)C(N)=O)NC(=O)[C@H](C2CCCC2)NC(=O)[C@H](CCC(N)=O)NC(=O)[C@H](C)NC(=O)[C@H](Cc2c[nH]c3ccccc23)NC(=O)[C@H](Cc2ccc(O)cc2)NC(=O)[C@H](CCC(=O)O)NC1=O)[C@@H](C)O (single isomer, unassigned)
**Result** 2

**Query** Ok, now CC(=O)N[C@@H](CC(C)C)C(=O)N[C@H](C(=O)N[C@@H](Cc1ccccc1)C(=O)N[C@]1(C)CCCCCCC=CCCC[C@@](C)(C(=O)N[C@@H](C)C(=O)N[C@@H](C)C(=O)N[C@@H](C)C(=O)N[C@@H](C)C(=O)N[C@@H](C)C(=O)N[C@@H](C)C(=O)N[C@H](C)C(N)=O)NC(=O)[C@H](CC(C)C)NC(=O)[C@H](CCC(N)=O)NC(=O)[C@H](C)NC(=O)[C@H](Cc2c[nH]c3ccccc23)NC(=O)[C@H](Cc2ccc(O)cc2)NC(=O)[C@H](CCC(=O)O)NC1=O)[C@@H](C)O (single isomer, unassigned)
**Result** 2

**Query** Now consider CC(=O)N[C@@H](CC(C)C)C(=O)N[C@H](C(=O)N[C@@H](Cc1ccccc1)C(=O)N[C@]1(C)CCCCCCC=CCCC[C@@](C)(C(=O)N[C@@H](CO)C(=O)N[C@H](C(=O)N[C@@H](C)C(N)=O)C(C)C)NC(=O)[C@H](CC(C)C)NC(=O)[C@H](CCC(N)=O)NC(=O)[C@H](C)NC(=O)[C@H](Cc2c[nH]c3ccccc23)NC(=O)[C@H](Cc2ccc(O)cc2)NC(=O)[C@H](C(C)C)NC1=O)[C@@H](C)O (single isomer, unassigned) .
**Result** 2

**Query** What do you get for CC[C@H](C)[C@H](NC(=O)[C@H](C)NC(=O)[C@H](CO)NC(=O)[C@]1(C)CCCC=CCCCCCC[C@@](C)(NC(=O)[C@H](Cc2ccccc2)NC(=O)[C@@H](NC(=O)[C@H](CC(C)C)NC(C)=O)[C@@H](C)O)C(=O)N[C@@H](C)C(=O)N[C@@H](Cc2ccc(O)cc2)C(=O)N[C@@H](Cc2c[nH]c3ccccc23)C(=O)N[C@@H](C)C(=O)N[C@@H](CCC(N)=O)C(=O)N[C@@H](CC(C)C)C(=O)N1)C(N)=O [compound 8] (Ac-LTF[R8]AYWAQL[S5]SAI-NH2; staple 4-11) ?
**Result** 1

**Query** What do you get for CC[C@H](C)[C@H](NC(=O)[C@H](C)NC(=O)[C@H](C)NC(=O)[C@]1(C)CCC/C=C/CCCCCC[C@@](C)(NC(=O)[C@H](Cc2ccccc2)NC(=O)[C@@H](NC(=O)[C@H](CC(C)C)NC(C)=O)[C@@H](C)O)C(=O)N[C@@H](C)C(=O)N[C@@H](Cc2ccc(O)cc2)C(=O)N[C@@H](Cc2c[nH]c3ccccc23)C(=O)N[C@@H](C)C(=O)N[C@@H](CCC(N)=O)C(=O)N[C@@H](CC(C)C)C(=O)N1)C(=O)N[C@H](C)C(N)=O ?
**Result** 3.68

**Query** What do we get for CC(=O)N[C@@H](CC(C)C)C(=O)N[C@H](C(=O)N[C@@H](Cc1ccccc1)C(=O)N[C@]1(C)CCCCCCC=CCCC[C@@](C)(C(=O)N[C@@H](CO)C(=O)N[C@@H](C)C(=O)N[C@@H](Cc2ccccc2)C(=O)N[C@@H](C)C(N)=O)NC(=O)[C@H](CC2CCC2)NC(=O)[C@H](CCC(N)=O)NC(=O)[C@H](C)NC(=O)[C@H](Cc2c[nH]c3ccccc23)NC(=O)[C@H](Cc2ccc(O)cc2)NC(=O)[C@H](CCC(=O)O)NC1=O)[C@@H](C)O [compound 242] (Ac-LTF[R8]EYWAQ[Cba][S5]SAFA-NH2; staple 4-11) ?
**Result** 4

**Query** Thanks! And CC(=O)N[C@@H](CC(C)C)C(=O)N[C@H](C(=O)N[C@@H](Cc1ccccc1)C(=O)N[C@]1(C)CCCCCCC=CCCC[C@@](C)(C(=O)N[C@@H](CO)C(=O)N[C@@H](C)C(=O)NC(C)(C)C(N)=O)NC(=O)[C@H](CC(C)C)NC(=O)[C@H](CCC(N)=O)NC(=O)[C@H](C)NC(=O)[C@H](Cc2c[nH]c3ccccc23)NC(=O)[C@H](Cc2ccc(O)cc2)NC(=O)[C@H](C)NC1=O)[C@@H](C)O [compound 10] (Ac-LTF[R8]AYWAQL[S5]SA[Aib]-NH2; staple 4-11) ?
**Result** 1

**Query** Field entry: CC(=O)N[C@@H](CC(C)C)C(=O)N[C@H](C(=O)N[C@@H](Cc1ccccc1)C(=O)N[C@]1(C)CCCCCCC=CCCC[C@@](C)(C(=O)N[C@@H](C)C(=O)N[C@@H](Cc2c[nH]cn2)C(=O)N[C@@H](Cc2ccccc2)C(=O)N[C@@H](C)C(N)=O)NC(=O)[C@H](CC(C)C)NC(=O)[C@H](CCC(N)=O)NC(=O)[C@H](C)NC(=O)[C@H](Cc2c[nH]c3ccccc23)NC(=O)[C@H](Cc2ccc(O)cc2)NC(=O)[C@H](C)NC1=O)[C@@H](C)O [compound 50] (Ac-LTF[R8]AYWAQL[S5]AHFA-NH2; staple 4-11)
**Result** 8

**Query** // query: CCCC[C@H](NC(=O)[C@H](C)NC(=O)[C@H](C)NC(=O)[C@]1(C)CCCC=CCCCCCC[C@@](C)(NC(=O)[C@H](Cc2ccccc2)NC(=O)[C@@H](NC(=O)[C@H](CC(C)C)NC(C)=O)[C@@H](C)O)C(=O)N[C@@H](C)C(=O)N[C@@H](Cc2ccc(O)cc2)C(=O)N[C@@H](Cc2c[nH]c3ccccc23)C(=O)N[C@@H](C)C(=O)N[C@@H](C)C(=O)N[C@@H](CC(C)C)C(=O)N1)C(=O)N[C@@H](C(N)=O)C(C)C (single isomer, unassigned)
**Result** 2

**Query** Now consider CC(=O)N[C@@H](CC(C)C)C(=O)N[C@H](C(=O)N[C@@H](Cc1ccccc1)C(=O)N[C@]1(C)CCCCCCC=CCCC[C@@](C)(C(=O)N[C@@H](CO)C(=O)N[C@H](C(=O)N[C@@H](CO)C(N)=O)C(C)C)NC(=O)[C@H](CC(C)C)NC(=O)[C@H](CCC(N)=O)NC(=O)[C@H](C)NC(=O)[C@H](Cc2c[nH]c3ccccc23)NC(=O)[C@H](Cc2ccc(O)cc2)NC(=O)[C@H](C(C)C)NC1=O)[C@@H](C)O (single isomer, unassigned) .
**Result** 2

Source listed as patent US20200369728A1.
